Measured values drawn from ChEMBL document CHEMBL5154916 for this set.

protocol_notes: Metabolic stability in dog hepatocyte assessed as intrinsic clearance measured per 10^6 cells
Format: ADME, cell-based, Canis lupus familiaris
experimental_context: hepatocytes, read-out: CLH
experimental_readout: hepatocyte CLint (µL/min/1e6 cells)
Express it in µL/min/1e6 cells; write the number only.

Exercise: # hepatocyte CLint lookup, item Cc1onc(-c2ccc(F)cc2)c1COc1ccc2c(n1)CCN(C(=O)CS(C)(=O)=O)C2
Solution: 2

* * *

study_system: GABA-A receptor; alpha-5/beta-3/gamma-2 (Homo sapiens) (UniProt P18507+P28472+P31644)
protocol_notes: Negative allosteric modulation activity at human recombinant alpha5beta3gamma2 GABAA receptor stably expressed in HEK293 cells assessed as modulation at alpha5 subunit at 10 uM by Patch clamp method
Format: cell-based
experimental_context: filed as negative allosteric modulator
Listed below: Activity values for each entry.
Reply with the number and its unit after it.

Illustrative cases are given below, each with its answer.
compound: Cc1onc(-c2ccc(F)cc2)c1COc1ccc2c(c1)CCC(=O)N2C
study_system: GABA-A receptor; alpha-5/beta-3/gamma-2 (Homo sapiens) (UniProt P18507+P28472+P31644)
measured: -10%
//
compound: Cc1onc(-c2ccc(F)cc2)c1COc1ccc2c(n1)CCN(C(=O)N(C)C)C2
study_system: GABA-A receptor; alpha-5/beta-3/gamma-2 (Homo sapiens) (UniProt P18507+P28472+P31644)
measured: -42%
//
compound: Cc1onc(-c2ccc(F)cc2)c1COc1ccc2c(c1)CCNC2=O
study_system: GABA-A receptor; alpha-5/beta-3/gamma-2 (Homo sapiens) (UniProt P18507+P28472+P31644)
measured: -7%
//
compound: Cc1nnn(-c2ccc(F)cc2)c1COc1ccc2c(n1)CCN(C(=O)C1CCOC1)C2 (stereo not given)
study_system: GABA-A receptor; alpha-5/beta-3/gamma-2 (Homo sapiens) (UniProt P18507+P28472+P31644)
measured: -39%
//
compound: Cc1onc(-c2ccc(F)cc2)c1COc1cc2c(cn1)C(=O)NCC2
study_system: GABA-A receptor; alpha-5/beta-3/gamma-2 (Homo sapiens) (UniProt P18507+P28472+P31644)
measured: 6%
//
compound: Cc1onc(-c2ccc(F)cc2)c1COc1ccc2c(n1)CCN(C(=O)C1CCC1)C2
study_system: GABA-A receptor; alpha-5/beta-3/gamma-2 (Homo sapiens) (UniProt P18507+P28472+P31644)
measured: -26%
//
compound: Cc1onc(-c2ccc(F)cc2)c1COc1ccc2c(n1)CCN(C(C)C)C2=O
study_system: GABA-A receptor; alpha-5/beta-3/gamma-2 (Homo sapiens) (UniProt P18507+P28472+P31644)
measured: -25%
//
compound: Cc1onc(-c2ccc(F)cc2)c1COc1ccc2c(n1)CCN(CC1CCCO1)C2=O (stereo not given)
study_system: GABA-A receptor; alpha-5/beta-3/gamma-2 (Homo sapiens) (UniProt P18507+P28472+P31644)
measured: -28%
//
compound: CC(=O)N1CCc2nc(OCc3c(C)nnn3-c3ccc(F)cc3)ccc2C1
study_system: GABA-A receptor; alpha-5/beta-3/gamma-2 (Homo sapiens) (UniProt P18507+P28472+P31644)
measured: -36%

Exercise: Which Activity is reported for this compound? Cc1nnn(-c2ccc(F)cc2)c1COc1ccc2c(n1)CCN(C(=O)NC1CCOC1)C2 (stereo not given)
Solution: -34%
